# Lookup of reported rat MASP2 IC50 keyed by entry
target: recombinant rat MASP2 active protease (amino acids 296-685, C-terminal His Tag) (rat, UniProt Q9JJS8 296-685); assay: cell-based or functional assay
Sequence (Q9JJS8 other isoform, or with tags, fused parts or gaps limits assumed): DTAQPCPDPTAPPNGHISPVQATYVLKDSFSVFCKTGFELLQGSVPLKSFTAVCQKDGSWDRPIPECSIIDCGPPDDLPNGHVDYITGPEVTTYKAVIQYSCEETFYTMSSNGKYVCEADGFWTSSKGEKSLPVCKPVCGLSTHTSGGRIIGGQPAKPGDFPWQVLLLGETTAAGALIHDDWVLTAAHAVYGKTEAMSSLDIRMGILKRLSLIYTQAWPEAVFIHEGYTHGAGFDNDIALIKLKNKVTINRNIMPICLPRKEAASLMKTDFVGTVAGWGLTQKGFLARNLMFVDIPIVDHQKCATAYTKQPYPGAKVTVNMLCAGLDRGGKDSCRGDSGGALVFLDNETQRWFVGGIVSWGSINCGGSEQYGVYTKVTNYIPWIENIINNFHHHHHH
Bridge positions count the residues as written; N and C are the ends. Square brackets hold non-standard residues; d marks the D form. Ends that are not written are not given here. Oic = O=C(O)[C@@H]1C[C@@H]2CCCC[C@@H]2N1; tBuAla = CC(C)(C)C[C@H](N)C(=O)O; Pen = CC(C)(S)[C@H](N)C(=O)O; Orn = NCCC[C@H](N)C(=O)O; Sar = CNCC(=O)O
readout name: rat MASP2 IC50

>>> result("[Sar]ICSRSLP[Oic]I[Pen]IP[PEG4‑CH2CO2H(15atoms)]-OH (disulfide 3-11) [Example 470: ((N-Me)G)-IC+SRSLP-(Oic)-I-(Pen)+IP-(PEG4-CH2CO2H (15 atoms))-OH]")
"54 nM"
>>> result("[Sar][Orn][Orn][Orn]ICSRSLP[Oic]I[Pen]IP-NH2 (disulfide 6-14; N-terminus assumed; SMILES CC[C@H](C)[C@H](NC(=O)[C@H](CCCN)NC(=O)[C@H](CCCN)NC(=O)[C@H](CCCN)NC(=O)CNC)C(=O)N[C@H]1CSSC(C)(C)[C@@H](C(=O)N[C@H](C(=O)N2CCC[C@H]2C(N)=O)[C@@H](C)CC)NC(=O)[C@H]([C@@H](C)CC)NC(=O)[C@@H]2C[C@@H]3CCCC[C@@H]3N2C(=O)[C@@H]2CCCN2C(=O)[C@H](CC(C)C)NC(=O)[C@H](CO)NC(=O)[C@H](CCCNC(=N)N)NC(=O)[C@H](CO)NC1=O) [Example 405: ((N-Me)G)-(Orn)-(Orn)-(Orn)-IC+SRSLP-(Oic)-I-(Pen)+IP-NH2]")
"510 nM"
>>> result("{2‑(3-Pyridyl)acetic acid}-ICSRS[tBuAla]PPI[Pen]IP-NH2 (disulfide 2-10) [Example 226: (2-(3-Pyridyl)acetic acid)-IC+SRS-((tBu)A)-PPI-(Pen)+IP-NH2]")
"2.9 nM"
